Parameter pIC50: see the listing below.
Target Or System: human TRPV4 (Homo sapiens, UniProt Q9HBA0)
Construct: host or cells: tetracycline-inducible Flp-In T-REx 293 cells
Sequence (Q9HBA0 whole entry): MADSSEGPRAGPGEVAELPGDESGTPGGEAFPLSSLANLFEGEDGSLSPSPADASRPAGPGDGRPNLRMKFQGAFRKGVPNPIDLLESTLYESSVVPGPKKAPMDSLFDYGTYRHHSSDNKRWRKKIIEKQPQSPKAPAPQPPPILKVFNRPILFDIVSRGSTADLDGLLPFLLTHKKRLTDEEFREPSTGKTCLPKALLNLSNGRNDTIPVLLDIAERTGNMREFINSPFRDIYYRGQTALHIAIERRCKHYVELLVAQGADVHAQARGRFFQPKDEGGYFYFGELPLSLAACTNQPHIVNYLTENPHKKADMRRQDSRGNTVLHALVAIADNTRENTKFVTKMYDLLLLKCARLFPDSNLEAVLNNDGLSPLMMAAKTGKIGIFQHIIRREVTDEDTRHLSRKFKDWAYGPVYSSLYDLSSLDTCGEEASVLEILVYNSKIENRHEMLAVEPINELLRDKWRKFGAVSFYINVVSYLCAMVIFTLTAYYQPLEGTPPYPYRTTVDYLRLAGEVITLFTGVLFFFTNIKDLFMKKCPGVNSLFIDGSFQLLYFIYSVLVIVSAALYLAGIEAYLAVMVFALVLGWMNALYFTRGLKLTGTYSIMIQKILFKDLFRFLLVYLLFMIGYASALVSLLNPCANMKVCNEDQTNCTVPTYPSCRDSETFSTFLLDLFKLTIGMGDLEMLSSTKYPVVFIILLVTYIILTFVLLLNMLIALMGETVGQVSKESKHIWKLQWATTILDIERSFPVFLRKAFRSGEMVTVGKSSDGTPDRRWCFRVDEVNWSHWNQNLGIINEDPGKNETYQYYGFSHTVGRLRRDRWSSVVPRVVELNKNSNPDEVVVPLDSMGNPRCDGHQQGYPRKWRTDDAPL
Test Summary: Hypotonicity-induced Ca2+ influx (Fluo-4, FDSS)
Format: cell-based
Reported Conditions: Flp-In T-REx 293 cells stably expressing human TRPV4, compounds listed by potency bin (<10 nM Tables 96-1/96-2, <3 nM Table 97)
pIC50: −log10 of the molar value.
Assay Endpoint: pIC50

C=C(C)c1cccc(C2(c3nc4c(c(=O)[nH]3)CN(C(=O)[C@H](O)c3cccc(C(F)(F)F)c3)CCC4)CC2)c1: > 8.52
O=C([C@H](O)c1cccc(C(F)(F)F)c1)N1CCCc2nc(C3(c4cccc(C5=CCN(C(=O)C6(c7cccc(C(F)(F)F)c7)CC6)CC5)c4)CC3)[nH]c(=O)c2C1: > 8.52
Cc1cc(Cl)cc(-c2cccc([C@@H](O)C(=O)N3CCc4nc(C5(c6ccccc6)CC5)[nH]c(=O)c4C3)c2)c1: > 8.00
O=C(C(O)c1cccc(S(F)(F)(F)(F)F)c1)N1CCCc2nc(C3(c4cccc(Cl)c4)CC3)[nH]c(=O)c2C1 (stereo not shown): > 8.00
O=C(Cc1ccc(COc2ccccc2)cc1)N1CCN(c2ccc(-c3cccc(C4(c5nc6c(c(=O)[nH]5)CN(C(=O)[C@H](O)c5cccc(C(F)(F)F)c5)CCC6)CC4)c3)cn2)CC1: > 8.00
O=C([C@H](O)c1cccc(-c2cc(Cl)cc(OC(F)(F)F)c2)c1)N1CCc2nc(C3(c4ccccc4)CC3)[nH]c(=O)c2C1: > 8.52
O=C(Cc1cccc(OCc2ccccc2)c1)N1CCCc2nc(C3(c4cccc(Cl)c4)CC3)[nH]c(=O)c2C1: > 8.00
